Target: Fuc(a1-4)GlcNAc
Assay: glycan array binding signal (z-score within array); higher = stronger binding
Settings: glycan notation: IUPAC condensed, linker removed
The full list was thinned out, with the strongest signals kept by preference.
Answer each item with its documented glycan array binding signal (z-score).
Lab note: jot down the number only; don't add units.

Reported glycan array binding signal (z-score) for GSL-I (Griffonia simplicifolia) (protein) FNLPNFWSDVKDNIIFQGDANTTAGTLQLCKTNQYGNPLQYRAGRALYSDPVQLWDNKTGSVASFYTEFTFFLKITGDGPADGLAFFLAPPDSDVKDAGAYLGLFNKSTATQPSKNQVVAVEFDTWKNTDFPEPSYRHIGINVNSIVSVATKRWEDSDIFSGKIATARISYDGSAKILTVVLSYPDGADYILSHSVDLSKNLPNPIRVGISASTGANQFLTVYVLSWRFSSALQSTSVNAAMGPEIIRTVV was -0.215

Reported glycan array binding signal (z-score) for DGL (Dioclea grandiflora), P08902 (protein) ADTIVAVELDSYPNTDIGDPNYPHIGIDIKSIRSKSTARWNMQTGKVGTVHISYNSVAKRLSAVVSYSGSSSTTVSYDVDLNNVLPEWVRVGLSATTGLYKETNTILSWSFTSKLKTNSIADENSLHFSFHKFSQNPKDLILQGDAFTDSDGNLELTKVSSSGDPQGNSVGRALFYAPVHIWESSAVVASFDATFTFLIKSPDREPADGITFFIANTDTSIPSGSGGRLLGLFPDAN was -0.175
